These measurements were taken from ChEMBL document CHEMBL3885861.

Species: Rattus norvegicus
ASSAY REMARKS: Open TG-GATES - Regimen: Daily Repeat
Format: toxicity, organism-based, Sprague-Dawley
Parameters: regimen Daily Repeat, gender Male, age 6 weeks
CONDITION CONTEXT: in vivo, po, 1000 mg/kg, 72 h, tissue Blood, route gavage, dose level High, time 3 day
# strict inequality: Lym < 80% yields y, everything else yields n

compound="CCOc1ccc(NC(=O)CC(C)O)cc1 (stereo not given)" cat=y
compound="COc1ccc2[nH]c([S+]([O-])Cc3ncc(C)c(OC)c3C)nc2c1 (stereo not given)" cat=n

Shift focus to the following entry.
query: Take the compound CCOC(=O)CCC(=O)O[C@H]1[C@H](O[C@@H]2[C@@H](C)[C@H](O[C@H]3C[C@@](C)(OC)[C@@H](O)[C@H](C)O3)[C@@H](C)C(=O)O[C@H](CC)[C@@](C)(O)[C@H](O)[C@@H](C)C(=O)[C@H](C)C[C@@]2(C)O)O[C@H](C)C[C@@H]1N(C)C [ERYTHROMYCIN ETHYLSUCCINATE] and say whether its Lym is less than 80%.
result: n
